# Target Entity: Neu5Ac(a2-6)Gal
# Assay Remarks: glycan array binding signal (z-score within array); higher = stronger binding
# Assay Setup: glycan notation: IUPAC condensed, linker removed
The entries come from a sample that favours the strongest signals as a whole.
Quantity Kind: glycan array binding signal (z-score)

SEX4 (Arabidopsis thaliana), Q944A8 (protein) TQAMGAVLTYRHELGMNYNFIRPDLIVGSCLQTPEDVDKLRKIGVKTIFCLQQDPDLEYFGVDISSIQAYAKKYSDIQHIRCEIRDFDAFDLRMRLPAVVGTLYKAVKRNGGVTYVHCTAGMGRAPAVALTYMFWVQGYKLMEAHKLLMSKRSCFPKLDAIRNATIDILTGLKRKTVTLTLKDKGFSRVEISGLDIGWGQRIPLTLGKGTGFWILKRELPEGQFEYKYIIDGEWTHNEAEPFIGPNKDGHTNNYAKVVDDPTSVDGTTRERLSSEDPELLEEERSKLIQFLETCSEAEV : -0.496
Gal 1 (Canis lupus) (protein) MACGLVASNLSLKPGQCLRVQCEVVPEAKSFVLNLGKDGDNLCLHFNPRFEAHGDVNTIVCNSKDGGAWGEELRESAFPFQPGTVTEVCISFDQADLTIKLPDGYTFKFPNRLNLEAISYLAADGDMKIKCLAFD : -0.257
VLRB.aGPA.23-GCN4-biotin (Petromyzon marinus) (protein) ACPSQCSCSGTEVNCAGKSLASVPAGIPTTTRVLYLNSNQITKLEPGVFDRLANLRELHLWGNQLVSLPPGVFDNLANLEKLWLNSNQLTSLPAGLFDRLVNLEHLGLCCMKLTELPSGAFDKLTRLKQLGLDQNQLKSIPDGAFARLPSLTHVWLHTNPWDCQCTDILYLSGWVAQHSSIVGEGWPWRHSPDSAKCSGTNTPVRAVTEASTSPSKCP : -0.082
MAL-II (Maackia amurensis), P93248 (protein) ATSNSKPTQVLLATFLTFFFLLLNNVNSSDELSFTINNFVPNEADLLFQGEASVSSTGVLQLTRVENGQPQQYSVGRALYAAPVRIWDNTTGSVASFSTSFTFVVKAPNPTITSDGLAFFLAPPDSQIPSGRVSKYLGLFNNSNSDSSNQIVAVEFDTYFGHSYDPWDPNYRHIGIDVNGIESIKTVQWDWINGGVAFATITYLAPNKTLIASLVYPSNQTSFIVAASVDLKEILPEWVRVGFSAATGYPTQVETHDVLSWSFTSTLEANSDAATENNVHIARYTA : -0.234
ECA (Erythrina cristagalli), P83410 (protein) VETISFSFSEFEPGNDNLTLQGAALITQSGVLQLTKINQNGMPAWDSTGRTLYTKPVHMWDSTTGTVASFETRFSFSIEQPYTRPLPADGLVFFMGPTKSKPAQGYGYLGVFNNSKQDNSYQTLAVEFDTFSNPWDPPQVPHIGIDVNSIRSIKTQPFQLDNGQVANVVIKYDAPSKILHVVLVYPSSGAIYTIAEIVDVKQVLPDWVDVGLSGATGAQRDAAETHDVYSWSFQASLPE : -0.208
YASPKCFRYPNGVLACT [Odorranalectin (Odorrana grahami), B3TFE9_RANGR] : -0.415
